src = paper PMC4297295

- MEASURED ON: T1, endothelial protein C receptor (EPCR), extracellular domain, biotinylated on the N-terminal BAP tag (human, UniProt Q9UNN8 18-210, biotin attached to the N-terminal BAP tag (BirA))
- T1 construct: also called biotinylated recombinant EPCR; ECPR
- T1 sequence: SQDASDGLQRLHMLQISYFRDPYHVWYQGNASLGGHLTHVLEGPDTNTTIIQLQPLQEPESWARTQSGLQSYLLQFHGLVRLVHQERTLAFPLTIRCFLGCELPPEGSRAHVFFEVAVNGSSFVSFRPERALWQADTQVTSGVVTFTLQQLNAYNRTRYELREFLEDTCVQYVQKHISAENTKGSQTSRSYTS
- METHOD NOTES: SPR
- CONDITION SET: both partners purified
Recorded koff for the following binders
Please state the figure in s⁻¹; there is no need to write the unit.

BINDER	SCALE UNIT	koff
CIDRα1.8a domain of PfEMP1 MAL6P1.316 (domain or fragment, also called CIDRa1.8a MAL6P1.316_3D7; MAL6P1.316 (1.8a)) PACVVECDGGKCEEKKNSDGTCIEAQIYTVVRDETPTPIKVLFSGDHQKDITKKLSSFCKNPESENNRDYQTWQCYYKSSDYNNCEMKGSLYKVEGDPNIIVSHECFHLWVQSLLIDTIKWETKLKKCINNTNVTNCYNKCNKNCECFENWVEQKKKEWENVNDVYKDQKQSLGIYYEKLENLFKSNFFQVMKALEGDEKGKWYQFKDDLKKKFEPSEKNTRTTDSQDAIKLILDHLKDNATTCKDNNSLEEDENC	s⁻¹	0.000828
CIDRα1.1 domain 2110-3 (patient isolate 2110) (domain or fragment) CPDCVVECVGGECKQKTDDDKNCRSKIIEEILKGEEPTVIDVLYSGNGQGVITKKLHDFCSSTNKEDDKYYKKWKCYNKNSDYNNCELISSLSTDPNDPNVMLSIKCFDSWARNLLVDALKWEHQLKNCINNTNVTDCKSNCNNNCKCYEEWIKRKGREWKQVKGVIENNDEGSHYYYKNVKNLFYNFLYPVIYKLEKEEKNGKWDQFMEDLKKKIESSETNTHTTDSQDAIELLLDHLKENAITCKDNNSLEEDKNC	s⁻¹	0.000511
CIDRα1.6b domain GA019_ERS010031 (domain or fragment, also called CIDRa1.6b GA019_ERS010031; GA019 (1.6b)) PYCGLDCVGKTCTAKQEIYPDCVYNGDYEPPNGAETTEITVLYNDNEGDMSKKLSQFCSNENKENIENYQKWKCYYKDRDDIECEMISSSQKDEKHRKVMIFYNFFDLWVKNLLRDSIKWEIELKDCINNTNVTDCKSVCNVNCECFDKWVKQKEKEWDSIKKLLKKKKNVSKKYYTNINKNFEFFFFRVMYELNNEEAKWNKLMENLRTKINSYKKNKRTKDSEGAIKVLFDHLKETATICKDNNTNEACVSSQNATTNPC	s⁻¹	0.000328

Please give the documented koff of CIDRα1.5b domain 1983-13 (patient isolate 1983) (domain or fragment) PDCGVECNGKTCTKKEETDENCGKPPNYTIPTDVTPTDINVLYSGDEQGYITKRLSEFCGPTKNYIGKKNELWKCYYDDKQKNNNNNNNICKLQPNAHIKNENIIINFDNFFEFWVRRFLNDTIDWKYDLNTCMNFTNTTKCNNNCNKNCKCFEQWVNIKKTEWKNVTEYFFKHDETSKKKYCEILKDIFENYYVEVIEKFYKGKHKWKERIEKLKNMDCSQVKIGTNASQDQIDIFLSNLKGDATQCTSKNPKSACNKPHAARIITRATTRNPC
0.00047

Report koff for CIDRα1.1 domain of PfEMP1 IT4var19 (domain or fragment, also called CIDRa1.1 IT4var19_IT4; IT4var19 (1.1)) PDCVVVCEGGNCKEKTEDDNCRSEIIKKILKYETPTPIDVLYSGKGQGLITKKLEDFCSSTTNYEGTNVQKWKCYNKNKDYNNCEMNISSYKDATDPNVMLSVECFHSWAKNLLIDTIRWEHQLKNCINNTNVTDCTSKCIKNCECYEKWIKEKEKEWPQVKGVLKKKDETSHNYYDKLKDVFDRFLFEVKGALDQDEKGKWDQFTKDLEKKFGPSVESAGTANSQDAIELLLDHLNDNATTCKDNNSLAVENC
0.000364

Entry CIDRα1.8b domain 1702-3 (patient isolate 1702) (domain or fragment) PDCIVVCDYKGCKENKNDENCKSKRTYSLPPDVNSTEIEVLFSGDNQEDIVEKLSSFCKNTNNENGENVEKWECYYESEHNNKCKMTSPKHKDEKRPTVMIFDEFFDFWVTHLIKDTIKWESDINDCINNTNVTDCDSACNENCKCFDEWVEKKEVEWGNVKKVLGNRSENLNIYYNKLNGIFSGFFFGVMHELKKKEAKQGVKAEEAQEAEETQEAQEEEAKWNKLTAKLQEIIDSSKGKADTANSQDAIKPLLEYIKETATTCIDNNSLAVENCPKTKINPC needs its koff filled in; supply it.
2.28e-05

Consider the binder CIDRα1.5a domain GA013_ERS010323 (domain or fragment, also called CIDRa1.5a GA013_ERS010323; GA013 (1.5a)) PYCGVDCSNGTCKENGNDDNCGEQQNYNIPKGVDPTNINVLYSVDGHGDIAKRLSTFCNDKNNKNAKNNEIWQCYYIGHKNNQCKIEKSVSQKKHQTKIAPFDYFFDLWVTNLLRDNIDWKNELKNCINNKNTEKCNKECNDNCKCFQSWLNKKEDEWNKITGLLKNKNGILQNYYNKLKSHFDYYFFQVINNINKGEEKWKKLKEDLKKEIDFSKLKTNTGDSQDSIKLLLDHENKNAGTCLKNNPIDSCPKAEPQKSDEKVQPQDTPPNSC and give its recorded koff.
0.000832

Name the recorded koff of the binder listed here: CIDRα1.8a domain GA026_ERS010178 (domain or fragment, also called CIDRa1.8a GA026_ERS010178; GA026 (1.8a)) PDCVVDCKGAKCEQKMKPDGTCEKPQIYTRPKDVTPKIIKVLFSGDNQEDITEKLSSFCSNPKSKIDRNYQTWKCYYKSGHYNICEMKGSLYKYPEHPNDMLSVECFHLWVKNLLIDTIKWETKLKKCINNTNVTDCDNECNKNCECFENWVEQKKKEWEEVRKVYKDQKESLGIYYKKLENLFDTYYFEVMGALENEEKHGKWNQLTAKLKQIIESHKKNRHSGNSQDAIELLLDHLKETATTCKDNNSNESCDVSKDSKTNPC
0.000842

Look up and report measured koff for this entry: CIDRα1.7 domain 1965-8 (patient isolate 1965) (domain or fragment) PHCGVDCNGKKCTLKSDNDPQCVNKLKYEPPYGVKPTEITVLYSADQEGDISKKLSEFCNDEKKINSKNIETWKCYYKSTYNNACKMDKNSKNHTPEVKITKFHNFFEMWIVYLLTETITWNDKLKTCMNNIKTTDCIDECNTNCVCFDKWVKQKGKEWNSIKKLFIKEQKNPKQNYGNINIYFESFFFHVMDKLNHDEAKWNELMNELKQIIDSSKANTDNKNLQDAIKVLFDHLKEIATICKDNNTNEACEDSKKETQNPC
0.00021
